Recorded protein stability index values for a group of variants are listed next.
B1: TRIM35 (parent)
chain: PTCPVCKDRASPADLRTNHTLNNL

# Variants of: B1
# Test details: protein stability index of a GFP-peptide fusion (GPS, HEK-293T) (PSI 1-6); higher = more stable;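 note: lentivirally expressed fusions sorted by FACS into six bins by GFP to DsRed ratio, PSI derived from sequencing read proportions per bin multiplied by bin number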
# Experimental conditions: c terminus: a fixed tail appended
Experimental readout: protein stability index

- PTCPVCKDRISPADLRTNHTLNNL [A10I]: 3.05
- PTCPVCKDAASPADLRTNHTLNNL [R9A]: 2.98
- PTCPVCKDRTSPADLRTNHTLNNL [A10T]: 2.96
- PTCPVCKDRASPADLRKNHTLNNL [T17K]: 3.02
- PTCPVCKDRAYPADLRTNHTLNNL [S11Y]: 3.11
- VTCPVCKDRASPADLRTNHTLNNL [P1V]: 2.85
- PTCPWCKDRASPADLRTNHTLNNL [V5W]: 2.78
- PTCPVCNDRASPADLRTNHTLNNL [K7N]: 3.13
- PTCPVCKDRASPADPRTNHTLNNL [L15P]: 3.34
- PTCPVCKDRASPADLRTNHTNNNL [L21N]: 3.27
- PTCPVCKDRASPADLRTNHTYNNL [L21Y]: 2.76
- PTCPVCKDRASPADLRTNHTLNCL [N23C]: 4.21
- PTCPVCKDRASEADLRTNHTLNNL [P12E]: 3.38
- PTCPVCKDRASPADLRTNHTLNSL [N23S]: 3.18
- PTCPVCKDRASPADLKTNHTLNNL [R16K]: 2.7
- PTCPVGKDRASPADLRTNHTLNNL [C6G]: 4.12
- PTCPVCKDRASPAILRTNHTLNNL [D14I]: 2.45
- PTCPVCWDRASPADLRTNHTLNNL [K7W]: 2.84
- PTCPGCKDRASPADLRTNHTLNNL [V5G]: 3.7
- PRCPVCKDRASPADLRTNHTLNNL [T2R]: 3.12
- PTCPVIKDRASPADLRTNHTLNNL [C6I]: 3.59
- PTCPVCKDRASPADLRTNHHLNNL [T20H]: 3.03
- PTCPVCKDRADPADLRTNHTLNNL [S11D]: 3.44
- PTCPVCKIRASPADLRTNHTLNNL [D8I]: 2.65
- PTCPVCKDRFSPADLRTNHTLNNL [A10F]: 2.96
- PTCPVCKDRASPADLRTNHTLNNM [L24M]: 2.8

All values here come from the supplement of paper PMC10567573.
